Test system: HCT-116
Assay: NCI tumour cell line growth inhibition, 48 h
Activity calls are given as the source filed them. Cut-off read from the data, not from the text of the source: active = GI50 up to about 1.1 µM and inactive = higher. Where a SMILES comes first, the peptide text is derived from it. [ ]: non-standard residue; d: D form. The star is where a group is joined. NMeF = CN[C@@H](Cc1ccccc1)C(=O)O; NMeV = CN[C@H](C(=O)O)C(C)C; Boc = CC(C)(C)OC(=O)*; OBn = c1ccc(CO*)cc1
Tick one outcome: Yes = active, No = inactive

Q) Outcome? COc1cccc(N(CN2CC=CC2=O)C(C)=O)c1
A) No

Q) Outcome? CC(C)[C@@H](C(=O)N1CCC[C@H]1C(=O)OCc1ccccc1)N(C)C(=O)[C@H](C(C)C)N(C)C(=O)[C@H](Cc1ccccc1)N(C)C(=O)[C@H](NC(=O)OC(C)(C)C)C(C)C (Boc-[dV][NMeF][NMeV][NMeV]P-OBn)
A) No

Q) Outcome? Cc1cc2c(c(C(N)=O)c1C)-c1cccc(F)c1C2=O
A) No

Q) Outcome? CC(=NNC(=S)Nc1cccc(C)c1)c1cccc(C(C)=NNC(=S)Nc2cccc(C)c2)n1
A) No

Q) Outcome? N#CCCN(CCC#N)c1ccc(/C=C(\NC(=O)c2cc([N+](=O)[O-])ccc2Cl)C(=O)Nc2ccccc2)cc1
A) No

Q) Outcome? COc1ccc2[nH]c3c([N+](=O)[O-])ccc(Cl)c3c(=O)c2c1
A) No

Q) Outcome? O=C1CCCCCCCCCCC(=O)N2CCOCCOCCN1Cc1cccc(n1)C2
A) No

Q) Outcome? Cn1c2ccccc2n2c3ccccc3c(=S)c(C#N)c12
A) No

Q) Outcome? CCCCCCCCCCCCCCCCCCNc1nc(=O)n(C2CC(O)C(COP(=O)(O)OCC(COP(=O)(O)OC3C(CO)OC(n4ccc(N)nc4=O)C3O)OCCCCCCCCCCCCCCCCCC)O2)cc1F (configuration not stated)
A) No

Q) Outcome? N#CCCN(C1=NN(C(=O)CC(=O)Nc2ccc(Cl)cc2)C(c2ccccc2)C1)c1ccc(Cl)cc1 (configuration not stated)
A) No

Q) Outcome? OC12c3ccccc3C3CCC4(OCCO4)C3C1c1ccccc12 (configuration not stated)
A) No

Q) Outcome? Cc1nc2ccc(S(=O)(=O)O)cc2c(=O)n1-c1ccc(C(=O)NN2C(=O)C(Cl)C2c2ccccc2O)cc1 (configuration not stated)
A) No

Q) Outcome? COc1cc2nc(-c3cccs3)nc(N3CCN(c4ccccc4C(F)(F)F)CC3)c2cc1OC
A) No

Q) Outcome? COC(=O)c1ccc2c(O)c(O)ccc2c1
A) No

Q) Outcome? O=C(/C(=C\I)c1ccccc1)c1ccccc1
A) No

Q) Outcome? COc1ccccc1C(=O)c1ccc2ccccc2c1
A) No

Q) Outcome? COP(=O)(OC)C(=O)N1N(c2ccc([N+](=O)[O-])cc2)C(=O)C(C)NC1(NNc1ccc([N+](=O)[O-])cc1)P(=O)(OC)OC (configuration not stated)
A) No

Q) Outcome? COc1cccc2c1C(=O)c1ccc3cc(CCl)cc(O)c3c1C2=O
A) Yes

Q) Outcome? NC(=S)N/N=C\c1nccc2ccccc12
A) Yes

Q) Outcome? O=C(/C=C/c1ccco1)N1CCN(Cc2ccccc2)CC1
A) No

Q) Outcome? CC1(C)OC(COP2OCCO2)[C@H](COP2OCCO2)O1 (some centres not stated)
A) No

Q) Outcome? CC(C)=CCNc1ncnc2c1c(C#N)cn2C1OC(CO)C(O)C1O (configuration not stated)
A) No
